- TARGET ENTITY: Luciferin 4-monooxygenase (Photinus pyralis)
- EXPERIMENT: qHTS assay to identify small molecule inhibitors of firefly luciferase (AID 1224835); note: nearly all actives have a fitted effect of over 25% in size
- CONDITION DESCRIPTION: purified P. pyralis luciferase, luminescence inhibition; series mostly up to 115 µM
Inconclusive results are not listed. Activity calls are given as the source filed them. Calls come from the whole dose curve; as a rule, active = well fitted inhibition curve with a large enough effect in the repeat runs; inconclusive = weak or mixed curves; inactive = flat fitted curve, though single readings scatter.
Pick one: True for active, False for inactive

Reference set, count: 5
INSERT INTO measurements (compound, class_name) VALUES
  ('CCCCCCC(O)CCOC(C)=O (configuration not stated)', 'False'),
  ('O=C1c2ccccc2C(=O)c2c(O)ccc(O)c21', 'False'),
  ('COc1ccc(/C=C/C(=O)c2ccc(OC)cc2OC)cc1', 'True'),
  ('CSSc1ccoc1C', 'False'),
  ('O=C(O)CCCc1c[nH]c2ccccc12', 'False');

### Prompt Please let me know the test result on file for CC1CCC(C(C)CS)CC1S (configuration not stated) .
### Response False

### Prompt Please let me know the test result on file for CC(C)N(C)C .
### Response False

### Prompt Please let me know the test result on file for CCc1ccc(C)cc1 .
### Response False

### Prompt Please let me know the test result on file for CC(=O)OCCC(C)CC(C)(C)C (configuration not stated) .
### Response False

### Prompt Please let me know the test result on file for COC(=O)CC(C(C)=O)C(=O)OC (configuration not stated) .
### Response False

### Prompt Please let me know the test result on file for CNc1c2c(nn1C)CCCC2 .
### Response False

### Prompt Please let me know the test result on file for CC(=O)NCCO .
### Response False

### Prompt Please let me know the test result on file for COc1cc(S(=O)(=O)Nc2ccccc2)c(OC)cc1N .
### Response False

### Prompt Please let me know the test result on file for CC[C@H]1OC(=O)[C@H](C)[C@@H](O[C@H]2C[C@@](C)(OC)[C@@H](O)[C@H](C)O2)[C@H](C)[C@@H](O[C@@H]2O[C@H](C)C[C@H](N(C)C)[C@H]2O)[C@](C)(O)C[C@@H](C)C(=O)[C@H](C)[C@@H](O)[C@]1(C)O .
### Response False

### Prompt Please let me know the test result on file for CCCCCCCC/C=C\CCCCCCCC(=O)OCCO .
### Response False

### Prompt Please let me know the test result on file for COC(=O)C1=C(C)NC(C)=C(C(=O)OC(C)(C)CN(C)CCC(c2ccccc2)c2ccccc2)C1c1cccc([N+](=O)[O-])c1 (configuration not stated) .
### Response False

### Prompt Please let me know the test result on file for C1=CCC2CC=CC2C1 (configuration not stated) .
### Response False

### Prompt Please let me know the test result on file for C=C(C)C(=O)OCCC(F)(F)C(F)(F)C(F)(F)C(F)(F)C(F)(F)C(F)(F)F .
### Response False

### Prompt Please let me know the test result on file for NC(=O)CCCCC(N)=O .
### Response False

### Prompt Please let me know the test result on file for COC(CC(C)CCCC(C)(C)O)OC (configuration not stated) .
### Response False

### Prompt Please let me know the test result on file for Cc1ccc(N(CC2=NCCN2)c2cccc(O)c2)cc1 .
### Response False

### Prompt Please let me know the test result on file for CC(=O)OCCC1CCCCC1 .
### Response False

### Prompt Please let me know the test result on file for Cc1ccc(Cl)cc1N .
### Response False

### Prompt Please let me know the test result on file for NC(=O)c1ccccc1[N+](=O)[O-] .
### Response False

###

- TARGET ENTITY: Estrogen receptor (Homo sapiens)
- EXPERIMENT: qHTS assay to identify small molecule antagonists of the estrogen receptor alpha (ER-alpha) signaling pathway using the BG1 cell line in the presence of 0.1 nM 17-beta-estradiol (AID 1259244); note: nearly all actives have a fitted effect of over 50% in size
- CONDITION DESCRIPTION: VM7Luc4E2 (BG1) ERE-luciferase, antagonist mode, 0.1 nM E2, 22 h; series mostly up to 92.4 µM
Results filed as inconclusive are left out. Calls of active or inactive are those of the source. Calls come from the whole dose curve; as a rule, active = well fitted inhibition curve with a large enough effect in the repeat runs; inconclusive = weak or mixed curves; inactive = no such curve, though single readings can be large or run the other way.
Pick one: active, inactive

INSERT INTO measurements (compound, class_name) VALUES
  ('CCC(CO)(CO)CO', 'inactive'),
  ('CCN(CC)c1cccc(O)c1', 'inactive'),
  ('CCOC(=O)c1ccc(NC(=O)CN2CCCCC2)cc1', 'inactive');

### Prompt Please let me know the test result on file for CCSC(=O)N(CC)CC .
### Response inactive

### Prompt Please let me know the test result on file for CCOc1ncc(F)c(=O)[nH]1 .
### Response inactive

### Prompt Please let me know the test result on file for Cc1ccc(S(=O)(=O)NC(=O)NC2CCCCC2)cc1 .
### Response inactive

### Prompt Please let me know the test result on file for Cc1cc([N+](=O)[O-])ccc1N .
### Response inactive

### Prompt Please let me know the test result on file for COc1ccc(C(=O)NCc2ccc(OCCN(C)C)cc2)cc1OC .
### Response inactive

### Prompt Please let me know the test result on file for CCOC(=O)N1CCC(Nc2ccc(Cl)cc2N)CC1 .
### Response inactive

###

- EXPERIMENT: qHTS RealTime-Glo MT Cell Viability Assay in HEK293 cells - 24 hour (AID 1224886); note: nearly all actives have a fitted effect of over 50% in size
- CONDITION DESCRIPTION: RealTime-Glo luminescence; series mostly up to 76.8 µM
Records with an inconclusive call do not appear. The source made the active and inactive calls. Calls come from the whole dose curve; as a rule, active = well fitted cell-killing curve with a large enough effect in the repeat runs; inconclusive = weak or mixed curves, or effect the other way; inactive = flat fitted curve, though single readings scatter.
Pick one: yes (1) (active), no (0) (inactive)

Reference set, count: 4
INSERT INTO measurements (molecule, class_name) VALUES
  ('Cc1c[nH]c2ccccc12', 'no (0)'),
  ('CC(CO)(CO)C(=O)O', 'no (0)'),
  ('COC(OC)OC', 'no (0)'),
  ('O=[N+]([O-])C1(Br)COCOC1', 'yes (1)');

### Prompt Please let me know the test result on file for C/C(C=O)=C\c1ccccc1 .
### Response no (0)

### Prompt Please let me know the test result on file for CC(C)(C)C1(CCc2ccc(Cl)cc2)CO1 (stereo not drawn) .
### Response no (0)

### Prompt Please let me know the test result on file for CC(=O)N[C@@H](Cc1ccc(O)cc1)C(=O)O .
### Response no (0)

### Prompt Please let me know the test result on file for CC(C)c1ccc(C(=O)N=C(N)N)cc1S(C)(=O)=O .
### Response no (0)

###

- EXPERIMENT: qHTS assay to identify small molecule antagonists of the vitamin D receptor (VDR) signaling pathway - cell viability counter screen (AID 743225); note: nearly all actives have a fitted effect of over 50% in size
- CONDITION DESCRIPTION: VDR-bla HEK293T viability, CellTiter-Glo luminescence, 16 h; series mostly up to 61 µM
Inconclusive results are not listed. Active and inactive are the calls of the source. Calls follow the shape of the dose curve; as a rule, active = well fitted cell-killing curve with a large enough effect in the repeat runs; inconclusive = weak or mixed curves, or effect the other way; inactive = no such curve, though single readings can be large or run the other way.
OBSERVABLE: outcome

Reference set, count: 5
INSERT INTO measurements (compound, observed_measurement) VALUES
  ('COc1ccc(C2C(=O)c3ccccc3C2=O)cc1', 'inactive'),
  ('CC1C(C)(C)C2=C(C(=O)CCC2)C1(C)C (configuration not stated)', 'inactive'),
  ('CCN(CC)CCOC(=O)C(c1ccccc1)c1ccccc1', 'inactive'),
  ('CC(C)Cc1ccc(CC(=O)O)cc1', 'inactive'),
  ('COc1cc(C(C)=O)ccc1OCCCN1CCC(c2noc3cc(F)ccc23)CC1', 'inactive');

### Prompt State, in one line, measured outcome of C=C(C)c1ccccc1
### Response inactive

### Prompt State, in one line, measured outcome of CC(CO)(CO)C(=O)O
### Response inactive

###

- EXPERIMENT: Human pregnane X receptor (PXR) small molecule agonists, qHTS cell viability counter screen (AID 1346977); note: nearly all actives have a fitted effect of over 50% in size
- CONDITION DESCRIPTION: PXR-Luc HepG2 viability, CellTiter-Fluor, 24 h; series mostly up to 92.4 µM
Inconclusive results are not listed. The source made the active and inactive calls. Calls come from the whole dose curve; as a rule, active = well fitted cell-killing curve with a large enough effect in the repeat runs; inconclusive = weak or mixed curves, or effect the other way; inactive = flat fitted curve, though single readings scatter.
Pick one: active, inactive

Reference set, count: 3
INSERT INTO measurements (molecule, class_name) VALUES
  ('Cc1ccc2c(c1[N+](=O)[O-])C(=O)c1ccccc1C2=O', 'active'),
  ('O=C(CCS)OCC(COC(=O)CCS)(COC(=O)CCS)COC(=O)CCS', 'inactive'),
  ('COc1cc(S(=O)(=O)Nc2ccccc2)c(OC)cc1N', 'inactive');

### Prompt Please let me know the test result on file for COc1cc(OC)c2ccc(=O)oc2c1 .
### Response inactive

### Prompt Please let me know the test result on file for Cc1c[nH]c2ccccc12 .
### Response inactive

### Prompt Please let me know the test result on file for O=C(O)CCC(=O)OC[C@@H](NC(=O)C(Cl)Cl)[C@H](O)c1ccc([N+](=O)[O-])cc1 .
### Response inactive

### Prompt Please let me know the test result on file for Cc1ccc(NC(=O)N(C)C)cc1NC(=O)N(C)C .
### Response inactive

### Prompt Please let me know the test result on file for CN1C(CSCC(F)(F)F)Nc2cc(Cl)c(S(N)(=O)=O)cc2S1(=O)=O (stereo not given) .
### Response inactive

### Prompt Please let me know the test result on file for CCOC(=O)Oc1ccc(CCNC(=O)[C@H](CCSC)NC(C)=O)cc1OC(=O)OCC .
### Response inactive

### Prompt Please let me know the test result on file for O=C(O)CO .
### Response inactive

### Prompt Please let me know the test result on file for O=C(O)CCCc1c[nH]c2ccccc12 .
### Response inactive

### Prompt Please let me know the test result on file for CCCCCCCCCCCCCCCCCC(=O)OCC(CC)CCCC (stereo not given) .
### Response inactive
